FYI, the data here is from PubChem BioAssay AID1963865.

# Test system: KRAS PDC multicell spheroid viability;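 further: spheroids exposed to compounds for 7 days; 100% = DMSO vehicle control viability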
# assay.text: Anticancer human tumor 825966-067-R-J1-PDC patient-derived colon carcinoma cell line growth inhibition [KRAS2]
# experimental.setup: second compound 0.316 µM; first compound 0.01 µM; hits give low values
molecules and their reported viability, T/C
All answers are understood in %, so give the number only.

Examples from the recorded data:
{"columns": ["molecule", "endpoint.unit", "viability, T/C"],
 "data": [
  ["Cn1ncnc1[C@H]1c2n[nH]c(=O)c3cc(F)cc(c23)N[C@@H]1c1ccc(F)cc1 + CNCc1ccccc1-c1csc(C(C)Nc2nc(C)nc3cc(OC)c(OC)cc23)c1", "%", 57.9],
  ["CC1COCCN1c1cc(-c2ccnn2C)c2ccnc(-c3ccn[nH]3)c2n1 (stereo not given) + C=CC(=O)N1CCN(c2nc(OCC3CCCN3C)nc3c2CCN(c2cccc4cccc(C)c24)C3)CC1CC#N", "%", 94.5],
  ["CC(C)n1nc(-c2ccc3oc(N)nc3c2)c2c(N)ncnc21 + C=CC(=O)N1CCN(c2nc(=O)n(-c3c(C)ccnc3C(C)C)c3nc(-c4c(O)cccc4F)c(F)cc23)C(C)C1", "%", 130]
]}

The recorded viability, T/C for entry Cn1ncnc1[C@H]1c2n[nH]c(=O)c3cc(F)cc(c23)N[C@@H]1c1ccc(F)cc1 + COc1cc2nc(C)nc(NC(C)c3cc(N)cc(C(F)(F)F)c3)c2cc1OC1CCOC1 equals 101

The recorded viability, T/C for entry CCN1CCN(Cc2ccc(Nc3ncc(F)c(-c4cc(F)c5nc(C)n(C(C)C)c5c4)n3)nc2)CC1 + CC1OCC2(CCN(c3cnc(Sc4ccnc(N)c4Cl)c(N)n3)CC2)C1N equals 115
